target: human cGAS (residues 161-522) (Homo sapiens); construct: human cGAS (residues 161-522); experiment: cGAS Activity Assay—Malachite Green; settings: recombinant purified human cGAS 25 nM; 80 μM ATP, 80 μM GTP, 100 nM ISD; 4 hour at RT; phosphate detection by Malachite Green
Sequence (Q8N884 161-522): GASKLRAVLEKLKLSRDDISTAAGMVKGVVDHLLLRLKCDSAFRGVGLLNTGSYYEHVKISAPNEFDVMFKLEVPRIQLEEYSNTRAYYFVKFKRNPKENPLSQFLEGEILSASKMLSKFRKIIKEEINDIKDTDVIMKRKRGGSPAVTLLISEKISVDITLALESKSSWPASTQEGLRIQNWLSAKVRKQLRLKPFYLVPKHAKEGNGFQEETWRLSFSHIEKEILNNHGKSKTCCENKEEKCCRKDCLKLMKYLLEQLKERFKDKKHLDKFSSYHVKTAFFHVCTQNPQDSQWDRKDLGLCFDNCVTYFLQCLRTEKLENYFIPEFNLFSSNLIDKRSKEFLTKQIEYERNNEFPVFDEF
pIC50: −log10 of the molar value.
Quantity Measured: pIC50

Example cases with answers are listed next.
Cc1oncc1/C(O)=C(\C#N)C(=O)Nc1ncc(OCC2CCCC2)cn1 | 6.80
Cc1oncc1/C(O)=C(\C#N)C(=O)Nc1ccc(S(=O)(=O)NC(C)(C)C)cn1 | 6.85
Cc1oncc1/C(O)=C(\C#N)C(=O)Nc1ncc(S(=O)(=O)c2ccccc2)c(-c2cccc(F)c2)n1 | 7.22
Cc1oncc1/C(O)=C(\C#N)C(=O)Nc1ccc(C(=O)N[C@H]2CCN(Cc3ccccc3)C2)cc1 | 6.00

I: COc1cnc(NC(=O)/C(C#N)=C(\O)c2cnoc2C)nc1
II: Cc1oncc1/C(O)=C(\C#N)C(=O)Nc1ccccc1
III: Cc1oncc1/C(O)=C(\C#N)C(=O)Nc1ccc(C(F)(F)F)cn1
IV: Cc1oncc1/C(O)=C(\C#N)C(=O)Nc1nccc(OCCF)n1
V: Cc1oncc1/C(O)=C(\C#N)C(=O)Nc1cccc(S(=O)(=O)c2ccccc2)c1
Input line: Rank ascending by pIC50. List the labels according to the requested ordering.
Output line: V, II, III, IV, I
